- System: NCI/ADR-RES ovarian
- protocol-summary: NCI-60 one-dose screen, 48 h (100 = growth as untreated, 0 = no growth, -100 = all killed)
- conditions: 10 µM unless noted
Compounds without any hit were thinned out: in the full panel of roughly 83,000, 20% have a hit.
Listed compounds paired with reported growth

| compound | growth / % |
| --- | --- |
| O=C(O)CNC(=O)CN1C(=O)c2ccccc2C1=O | 104 |
| COC(=O)C(c1ccccc1)C(CC(=O)c1ccccc1)c1ccccc1 (stereo not given) | 83.5 |
| CC(=O)O[C@]1(C(C)=O)CC[C@H]2[C@@H]3C=C(Cl)C4=CC(=O)CC[C@]4(C)[C@H]3CC[C@@]21C | 99.6 |
| CN(C)CCCn1c2c(c3ccc(-c4ccn[nH]4)cc3c1=O)C(=O)c1ccccc1-2 | 50.3 |
| COc1cc2nc(-c3ccc(C#N)cc3)[nH]c(=O)c2cc1OC | 98.7 |
| Nc1c(C(=O)Nc2ccc(Cl)cc2)cc(-c2nc3ccccc3s2)c(=O)n1NS(=O)(=O)c1ccc(Cl)cc1 | 105 |
| CCCCCCCCCCCCC1CCC/C=C\CCC(=O)O1 (stereo not given) | 102 |
| COc1ccc(-c2nc(N/N=C/c3cccc(Br)c3)nc(N3CCOCC3)c2C#N)cc1 | 83.3 |
| O=C1NC(=S)NC(=O)C1=Cc1cn(Cc2ccccn2)c2ccccc12 | 85.1 |
| COc1ccc(NC(=O)c2sc3nc(C)c(C(=O)CCc4cccc(OC)c4)cc3c2N)cc1 | 61.3 |
| C#CCNC(=O)[C@H](Cc1ccccc1)NC(=O)[C@]12CC[C@@H](C(=C)C)[C@@H]1[C@H]1CC[C@@H]3[C@@]4(C)Cc5c([nH]c6ccccc56)C(C)(C)[C@@H]4CC[C@@]3(C)[C@]1(C)CC2 | 97.2 |
| CN1CCN(c2cc(F)c(NC3=C(Cl)C(=O)c4ncccc4C3=O)c(F)c2)CC1 | 37.9 |
| CCCNC(=O)Oc1ccc(/C(=C(\C)c2ccccc2)c2ccc(OCCN3CCCCC3)cc2)cc1 | 77.2 |
| CN1C(=O)N(C)C2NC(N/N=C/c3ccccc3)=NC21 (stereo not given) | 104 |
| O=C1CCC(NC(=S)Nc2ccccc2)N1 (stereo not given) | 96.9 |
| Cc1c2c(cc[n+]1Cc1ccccc1)c1ccc(OCc3ccccc3)cc1n2Cc1ccccc1 | 65 |
| Cc1[nH]n(C(=O)c2ccncc2)c(=O)c1N=Nc1ccc(F)c(Cl)c1 | 95.6 |
| CCN1C(=O)N(CC)C2C1NN=c1s/c(=C3\C(=O)Nc4ccccc43)c(=O)n12 (stereo not given) | 42 |
| Nc1c(Cl)cc([N+](=O)[O-])cc1Br | 95 |
| O=C(Nc1ccc(Cl)cc1)Nc1ccc(Cl)c(Cl)c1 | -18.8 |

---

- Tested on: BT-549 breast
- protocol-summary: NCI-60 one-dose screen, 48 h (100 = growth as untreated, 0 = no growth, -100 = all killed)
- conditions: 10 µM unless noted
About 83,000 compounds went through this panel and 20% of them were active in at least one assay; those are over-represented in the sample as a whole. Active and inactive are the calls of the source. Rule for the calls: active = growth percent below 10; inactive = the rest.
Reported growth by item:

| compound | growth |
| --- | --- |
| CC(=O)Nc1ccc(C(=O)Nc2cc(-c3ccccc3)ccc2N)cc1 | 102% (inactive) |
| NC(=S)N/N=C(/c1ccccc1)c1ccccc1N | 104% (inactive) |
| CNC(=O)c1c(NC(=O)c2ccc(C(C)C)cc2)sc2c(CN(C)C)c(O)ccc12 | 87.9% (inactive) |
| Clc1cc(Cl)cc(N2N=C(c3cccc(Nc4ccncc4)c3)CC2c2ccc(Br)cc2)c1 (stereo not given) | 112% (inactive) |
| COc1ccc(-c2cnnc3c(-c4cccc(C(F)(F)F)c4)cnn23)cc1 | -34.9% (active) |
| CC(=O)OCC(=O)C1(O)C(C)CC2C3C=C(C)C4=Cc5c(cnn5-c5ccccc5)CC4(C)C3C(O)CC21C (stereo not given) | 21.5% (inactive) |
| C#Cc1cccc(NC(=O)Nc2ccc(NC(=O)CCl)cc2)c1 | -64.2% [8.25 µM] (active) |
| COc1cc(/C=C/C(=O)c2c(C)oc3nc[nH]c(=O)c23)ccc1O | 100% (inactive) |
| O=C1NC(=S)NC(=O)C1=Cc1cccc(C=C2C(=O)NC(=S)NC2=O)c1 | 87.5% (inactive) |
| O=C(N=Nc1c(O)[nH]c2ccc(F)cc12)c1cc2ccccc2[nH]1 | 90.2% (inactive) |
| COc1cc(C(=O)/C=C/c2c(C)n([O-])c3ccc(Cl)cc3[n+]2=O)cc(OC)c1OC | 64.7% (inactive) |
| COc1cccc(/C=C2\COc3ccc(-c4ccccc4)cc3C2=O)c1 | 13.1% (inactive) |
| CCCCCCCCCCN=C(N)N=C(N)N | 15.6% (inactive) |
| CC(=O)[C@@H]1CC[C@]2(C(=O)n3ccnc3)CC[C@]3(C)[C@H](CC[C@@H]4[C@@]5(C)Cc6c([nH]c7ccccc67)C(C)(C)[C@@H]5CC[C@]43C)[C@@H]12 | 99.1% (inactive) |
| FC(F)(F)c1cccc(Nc2ccccc2)c1 | 98.2% (inactive) |
| CSc1nc(O)c(-c2ccccc2)c(=O)[nH]1 | 103% (inactive) |
| Cc1[nH]n(C(=O)c2ccncc2)c(=O)c1N=Nc1ccc(F)c(Cl)c1 | 103% (inactive) |
| CC(C)(O)C1CCCN1C(=O)c1ccccc1I (stereo not given) | 133% (inactive) |
| CCCCCCCCCCCCCCCC(=O)OC[C@@]1(O)C[C@@]23CC[C@@H]4C(C)(C)CCC[C@@]4(C)[C@@H]2CC[C@H]1C3 | 86.7% (inactive) |
| CCCCCCNC(=O)Oc1ccc(/C(=C(/CC)Cc2ccccc2)c2ccc(OCCN(CC)CC)cc2)cc1 | 95.2% (inactive) |
